All values here come from PubChem BioAssay AID248.

Tested on: L1210 leukemia ip in BDF1 mice, survival T/C
protocol-notes: NCI In Vivo Anticancer Drug Screen. Data for tumor model L1210 Leukemia (intraperitoneal) in B6D2F1 (BDF1) mice
protocol-conditions: endpoint: mean survival time; dose: 400.0 mg/kg/injection; schedule: Q01DX009 (ip); vehicle: Klucel (hydroxypropylcellulose) (HPC); higher = longer survival
Inconclusive results and toxic doses are left out.
measured-attribute: T/C

# compound, result
records = [
    ("CC(CC#N)OC(=O)c1cccc([N+](=O)[O-])c1 (stereo unspecified)", "98 % of control"),
    ("CCOC(=O)C1CC2C=CC1C2 (stereo unspecified)", "103 % of control"),
    ("O=C(O)C(CSC(c1ccccc1)(c1ccccc1)c1ccccc1)NSc1ccccc1[N+](=O)[O-] (stereo unspecified)", "110 % of control"),
    ("COc1ccc(C=O)cc1OC", "96 % of control"),
    ("O=C1OC(c2ccccc2)(c2ccccc2)c2ccccc21", "88 % of control"),
    ("COc1ccc(Cl)cc1NS(=O)(=O)c1ccc(Cl)cc1", "92 % of control"),
    ("CCOC(=O)Cc1cnc(C)[nH]c1=O", "96 % of control"),
    ("CC(=O)Nc1ccc(Cl)nc1", "93 % of control"),
    ("Cc1cc(Cl)ccc1NC(=O)c1ccccc1C(=O)O", "102 % of control"),
    ("O=C1CCC(OC(=O)c2ccccc2)CC1", "100 % of control"),
    ("CCC(C)c1cc([N+](=O)[O-])cc([N+](=O)[O-])c1SC(=O)N(C)C (stereo unspecified)", "100 % of control"),
    ("CC(Cl)CN(CC(C)Cl)C(=O)Oc1ccccc1[N+](=O)[O-] (stereo unspecified)", "93 % of control"),
    ("Oc1cc(Br)ccc1C=Nc1ccc(N2CCCCC2)cc1", "89 % of control"),
    ("O=C(O)c1cnc[nH]1", "94 % of control"),
    ("Cc1cc([N+](=O)[O-])c(NCCOC(=O)c2ccccc2Cl)c([N+](=O)[O-])c1", "102 % of control"),
    ("CN(C)c1ccc(C(=C(C#N)C#N)c2ccc(N(C)C)cc2)cc1", "102 % of control"),
]
